- system name: T1, human activated protein C (human, UniProt P04070 43-197; P04070 212-461)
- T1 construct: also called human aPC; human APC
- assay comment: ELISA, coated antigen
parameter: EC50 (nM)

{"binder": "Hu1573-9 (antibody, V domains shown, Humanized IgG, human gamma 1 / kappa constant regions by vectors pCP-hCg1 and pCP-hck; also called H1573VH.1D + H1573Vk.2) VH: EVQLVESGGGLVQPGGSLRLSCAASGFTFSNYYLNWVRQAPGKGLEWVGDIRLKSNNYEKHYAESVKGRFTISRDDSKSSLYLQMNSLKTEDTAVYYCIREGDYFDYWGQGTTVTVSS VL: DIVMTQTPLSLSVTPGQPASISCRASESVDSFGATFMHWYLQKPGQPPQLLIYLASNLESGVPDRFSGSGSGTDFTLKISRVEAEDVGVYYCQQNNEDPYTFGQGTKLEIKR", "parameter": "EC50", "observed result": 0.313}
{"binder": "Hu1573-8 (antibody, V domains shown, Humanized IgG, human gamma 1 / kappa constant regions by vectors pCP-hCg1 and pCP-hck; also called H1573VH.1C + H1573Vk.2B) VH: EVQLVESGGGLVQPGGSLRLSCAASGFTFSNYYLNWVRQAPGKGLEWVADIRLKSNNYEKHYAESVKGRFTISRDDSKNSLYLQMNSLKTEDTAVYYCIREGDYFDYWGQGTTVTVSS VL: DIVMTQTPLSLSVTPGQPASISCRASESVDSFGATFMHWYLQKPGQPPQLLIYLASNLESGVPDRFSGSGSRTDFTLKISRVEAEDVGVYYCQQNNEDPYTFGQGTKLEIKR", "parameter": "EC50", "observed result": 0.697}
{"binder": "1573 Chimeric (antibody, V domains shown, IgG; also called chimera 1573; 1573VH (chimeric) + 1573Vk (chimeric)) VH: EVKLEESGGGLVQPGGSMKLSCVASGFTFSNYYLNWVRQSPEKGLEWVADIRLKSNNYEKHYAESVKGRFTISRDDSKSSVYLQMNNLRAEDTGIYYCIREGDYFDYWGQGTTLTVSS VL: NIVLTQSPASLAVSLGQRATISCRASESVDSFGATFMHWYQQKPGQPPKLLIYLASNLESGVPARFSGSGSRTDFTLTIDPVEADDAATYYCQQNNEDPYTFGGGTKLEIKR", "parameter": "EC50", "observed result": 0.334}
